Where do the numbers come from? From PubChem BioAssay (NCATS).

experiment: Primary qHTS for inhibitors of nuclear receptor binding SET domain protein 2 (NSD2) in an RCH-ACV wild type WT cells (2C) (AID 1645877); conditions: RCH-ACV (leukaemia line) NSD2 WT (2C) viability, CellTiter-Glo, 72 h; series mostly up to 44.9 µM; note: nearly all actives have a fitted effect of over 70% in size
Results filed as inconclusive are left out. The source made the active and inactive calls. Calls come from the whole dose curve; as a rule, active = well fitted inhibition curve with a large enough effect; inconclusive = small, poorly fitted or top-dose-only effect; inactive = no such curve, though single readings can be large or run the other way.
Outcome codes: active, inactive

> print(dat)
                                    molecule     group
 1  COc1cc2c(cc1OC)-c1cc(=Nc3c(C)cc(C)cc3C)n(C)c(=O)n1CC2    active
 2                 CN(C)C(=O)Oc1ccc[n+](C)c1  inactive
 3  CCN1CCC[C@H]1CNC(=O)c1c(O)c(Cl)cc(Cl)c1OC  inactive
 4         CCOC(=O)c1cnc2c(cnn2CC)c1NN=C(C)C  inactive
 5  COc1ccc(CCN(C)CCCC(C#N)(c2cc(OC)c(OC)c(OC)c2)C(C)C)cc1OC (stereo not given)    active
 6  O=c1[nH]c(=O)n([C@H]2C[C@H](O)[C@@H](CO)O2)cc1Br    active
 7                             NC/C=C/C(=O)O  inactive
 8               CN(C)CCOC(=O)COc1ccc(Cl)cc1  inactive
 9  CCCN(CCC)C(=O)C(CCC(=O)O)NC(=O)c1ccccc1 (stereo not given)  inactive
10          CN(C)C(=O)Oc1cccc([N+](C)(C)C)c1  inactive
11          C[C@H](CS)C(=O)N1CCC[C@H]1C(=O)O  inactive
12              CCCCNc1ccc(C(=O)OCCN(C)C)cc1  inactive
13  CC(N=C(NC#N)Nc1ccncc1)C(C)(C)C (stereo not given)  inactive
14              NC(=O)c1cn(Cc2c(F)cccc2F)nn1  inactive
15         CN(C)C/C=C(/c1ccc(Br)cc1)c1cccnc1  inactive
16   CCCC(C(=O)OCCN(CC)CC)(c1ccccc1)c1ccccc1    active
17                CCN(CC)CC(=O)Nc1c(C)cccc1C  inactive
18            CCCCOCCOCCOCc1cc2c(cc1CCC)OCO2  inactive
19       CSc1ccc(C(=O)c2[nH]c(=O)[nH]c2C)cc1  inactive
20    Cc1nc2c([nH]1)c(=O)n(C)c(=O)n2Cc1ccco1  inactive
21  CCn1ccnc1CC1COc2ccccc2O1 (stereo not given)  inactive
22              CCCN(CCC)CCc1cccc2c1CC(=O)N2  inactive
23  COc1ccc([C@@H]2Sc3ccccc3N(CCN(C)C)C(=O)[C@@H]2OC(C)=O)cc1  inactive
24              NC(=O)N1c2ccccc2C=Cc2ccccc21  inactive
25                      CC(C)NNC(=O)c1ccncc1  inactive
26      Cc1ccc(S(=O)(=O)NC(=O)NN2CCCCCC2)cc1  inactive
27  CCCCCN(CCCCC)C(=O)C(CCC(=O)O)NC(=O)c1ccc(Cl)c(Cl)c1 (stereo not given)  inactive
28  CN/C(=C\[N+](=O)[O-])NCCSCc1ccc(CN(C)C)o1  inactive
29  C[n+]1cc2c3c(ccc2c2ccc4cc5c(cc4c21)OCO5)OCO3    active
30                  Cc1ccc(=O)n(-c2ccccc2)c1  inactive
31  CCN(Cc1ccncc1)C(=O)C(CO)c1ccccc1 (stereo not given)  inactive
32  CO[C@@]1(NC(=O)CSCC#N)C(=O)N2C(C(=O)O)=C(CSc3nnnn3C)CS[C@@H]21  inactive
33               Brc1c(NC2=NCCN2)ccc2nccnc12  inactive
34  C[C@]12CCC(=O)C=C1CC[C@@H]1[C@@H]2C(=O)C[C@@]2(C)[C@H]1CC[C@]2(O)C(=O)CO  inactive
35                   NC(=Nc1ccccc1)Nc1ccccc1  inactive
36     CCN(CC)CCNC(=O)c1cc(S(C)(=O)=O)ccc1OC  inactive
37  C[C@]12C=CC(=O)C=C1CC[C@H]1[C@@H]3C[C@@H](O)[C@](O)(C(=O)CO)[C@@]3(C)C[C@H](O)[C@@]12F    active
38  CC(=O)OCC1=C(C(=O)O)N2C(=O)[C@@H](NC(=O)Cc3cccs3)[C@H]2SC1  inactive
39                CN(C)CCN(Cc1cccs1)c1ccccn1  inactive
40  Nc1ncn([C@@H]2O[C@H](CO)[C@@H](O)[C@H]2O)c(=O)n1    active
